The reported numbers originate from patent US8071793B2.

System: human Burkitt's lymphoma cell line (Raji, ATCC No. CRL-86)
Protocol summary: Proliferation inhibition of human Burkitt's lymphoma cell line Raji (Cell Counting Kit-8)
Format: cell-based
Test parameters: Homo sapiens; Raji cells, 72 hours culture, Cell Counting Kit-8, absorbance 450 nm; read-out: IC50 (compound concentration with a proliferation-inhibition rate of 50%), Raji
Recorded IC50, one value per entry.
Observable: IC50 (µg/mL)

C/C=C/C/C=C/C(C)CC(O)C1CC2OC2/C=C/C(O)C(O)/C=C/CC(C)CC(=O)O1 (stereo not shown) ... 0.05
C=C(C(O)CC)C(C)C(O)C1CCC/C(C)=C/C2OC(CC2C)C2OC(CC/C=C/CCC(C)C(=O)O1)CC2O (stereo not shown) ... 0.01
C=C1CC2C/C=C/C(O)C(C)/C(C)=C\C(=O)OC(CC(C)C(C)O)C(C)C/C=C/C(C)(O)C(O)(C1)O2 (stereo not shown) ... 0.003
COc1cccc2c1C(=O)c1c(O)c3c(c(O)c1C2=O)C[C@@](O)(C(=O)CO)C[C@@H]3O[C@H]1C[C@H](N)[C@H](O)[C@H](C)O1 [Doxorubicin, doxorubicin, reference compound] ... 0.02
